Hello, the source for this data is patent US20240368267A1, in case you need it.

Target: T1, human IL-6 (human, UniProt P05231 30-212)
T1 construct: also called interleukin-6
T1 sequence (P05231 30-212 limits assumed): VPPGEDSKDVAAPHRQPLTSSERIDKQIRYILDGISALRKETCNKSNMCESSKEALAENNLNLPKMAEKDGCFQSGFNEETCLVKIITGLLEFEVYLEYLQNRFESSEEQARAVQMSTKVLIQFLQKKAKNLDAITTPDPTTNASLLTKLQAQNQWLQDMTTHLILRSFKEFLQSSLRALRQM
Test: SPR (Biacore T200), antibody from cell supernatant captured on Protein A, IL-6 flowed over, 37 C
Parameter Kd: see the listing below.
// units = nM; emit number, no label

In the examples that follow, each entry is paired with its recorded Kd.
[
  {
    "BINDER": "anti-IL-6 antibody, heavy chain T63D, G66D / light chain WT (antibody, human IgG1, V domains shown, Derived as m2; Engineered human IgG1) VH: EVQLVESGGGLVQPGGSLRLSCAASGFTFSPFAMSWVRQAPGKGLEWVAKISPGGSWTYYSDDVTDRFTFSLDTSKSTAYLQMNSLRAEDTAVYYCARQLWGYYALDIWGQGTLVTVSS VL: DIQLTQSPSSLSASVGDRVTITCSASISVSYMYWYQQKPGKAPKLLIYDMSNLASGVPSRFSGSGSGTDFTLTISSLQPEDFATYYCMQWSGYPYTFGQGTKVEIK",
    "QUANTITY_NAME": "Kd",
    "VAL": 0.204
  },
  {
    "BINDER": "anti-IL-6 antibody, heavy chain I51Q, G66D / light chain WT (antibody, human IgG1, V domains shown, Derived as m2; Engineered human IgG1) VH: EVQLVESGGGLVQPGGSLRLSCAASGFTFSPFAMSWVRQAPGKGLEWVAKQSPGGSWTYYSDTVTDRFTFSLDTSKSTAYLQMNSLRAEDTAVYYCARQLWGYYALDIWGQGTLVTVSS VL: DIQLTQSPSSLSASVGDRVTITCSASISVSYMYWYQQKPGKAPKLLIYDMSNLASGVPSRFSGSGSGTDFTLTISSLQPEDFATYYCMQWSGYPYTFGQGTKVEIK",
    "QUANTITY_NAME": "Kd",
    "VAL": 0.336
  }
]

Item anti-IL-6 antibody, heavy chain I51K, G66D / light chain WT (antibody, human IgG1, V domains shown, Derived as m2; Engineered human IgG1) VH: EVQLVESGGGLVQPGGSLRLSCAASGFTFSPFAMSWVRQAPGKGLEWVAKKSPGGSWTYYSDTVTDRFTFSLDTSKSTAYLQMNSLRAEDTAVYYCARQLWGYYALDIWGQGTLVTVSS VL: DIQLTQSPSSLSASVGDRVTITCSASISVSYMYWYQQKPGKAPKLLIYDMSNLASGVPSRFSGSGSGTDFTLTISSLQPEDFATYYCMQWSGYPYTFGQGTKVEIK has what recorded Kd?
0.291
